ASSAY INFO: activity coefficient (dimensionless); of the first substance listed, at infinite dilution; xn = mol fraction of the nth substance listed
TEST CONDITIONS: 313.15 K; Liquid; dilutor; x1 = 0
TEST READOUT: activity coefficient

                                   compound  quantitative_readout
0  C=CCCC [1-pentene] + CCCCCC[n+]1ccn(C)c1.O=S(=O)([N-]S(=O)(=O)C(F)(F)F)C(F)(F)F                  3.33
1  CCCCCCCC [octane] + CCCCCC[n+]1ccn(C)c1.O=S(=O)([N-]S(=O)(=O)C(F)(F)F)C(F)(F)F                  14.1
2  CC(C)=O [acetone] + CCCCCC[n+]1ccn(C)c1.O=S(=O)([N-]S(=O)(=O)C(F)(F)F)C(F)(F)F                  0.32
3  c1ccccc1 [benzene] + CCCC[N+]1(C)CCCC1.O=S(=O)([N-]S(=O)(=O)C(F)(F)F)C(F)(F)F                  0.86
4  CCCCCC [hexane] + CCCCCCCCn1cc[n+](C)c1.O=S(=O)([N-]S(=O)(=O)C(F)(F)F)C(F)(F)F                  5.26
5  C1CCCC1 [cyclopentane] + CCCCCC[n+]1ccn(C)c1.O=S(=O)([N-]S(=O)(=O)C(F)(F)F)C(F)(F)F                  3.48
6  CC(C)O [propan-2-ol] + CCCC[N+]1(C)CCCC1.O=S(=O)([N-]S(=O)(=O)C(F)(F)F)C(F)(F)F                  1.92
